Value source: ChEMBL document CHEMBL4265932

Target: Human immunodeficiency virus type 1 reverse transcriptase (Human immunodeficiency virus 1, UniProt Q72547, Y181C)
Assay: Inhibition of recombinant HIV1 reverse transcriptase Y181C mutant

# compound_smiles, scale_unit, sign, IC50
measured = [
    ("Cc1cc(C)c(Nc2ccnc(Nc3ccc(C#N)cc3)n2)c(C)c1", "nM", "=", 7.94),
    ("Cc1cc(C)c(Nc2ccnc(Nc3ccc(C(N)=O)cc3)n2)c(C)c1", "nM", ">", 10000),
    ("Cc1cc(C)c(Nc2ccnc(Nc3ccc(Cl)cc3)n2)c(C)c1", "nM", "=", 79.4),
]

###

Target: Human immunodeficiency virus type 1 reverse transcriptase (Human immunodeficiency virus 1, UniProt Q72547, K103N/L100I)
Assay: Inhibition of recombinant HIV1 reverse transcriptase L100I/K103N double mutant
IC50: recorded values
parameter_measured: IC50

# compound, measurement
records = [
    ("Cc1cc(C)c(Nc2ccnc(Nc3ccc(Cl)cc3)n2)c(C)c1", "> 10 µM"),
    ("Cc1cc(C)c(Nc2ccnc(Nc3ccc(C#N)cc3)n2)c(C)c1 [DAPIVIRINE]", "> 10 µM"),
]

###

Recorded selectivity ratio for the following compounds
Assay: Selectivity index, ratio of CC50 for human MT4 cells to EC50 for wild-type HIV1 3B reverse transcriptase infected in human MT4 cells
Format: toxicity, cell-based
Conditions: read-out: Ratio CC50/EC50
parameter_measured: selectivity ratio

# compound_smiles, parameter_measured, measurement
data = [
    ("N#Cc1ccc(Nc2nccc(Oc3ccc4cc(C#N)ccc4c3Br)n2)cc1", "selectivity ratio", 181000),
    ("N#Cc1ccc(Nc2nccc(Oc3ccc4ccccc4c3Br)n2)cc1", "selectivity ratio", 65600),
]

###

Assay: Selectivity index, ratio of CC50 for human TZM-bl cells to EC50 for wild-type HIV1 infected in human TZM-bl cells
Format: toxicity, cell-based
Conditions: read-out: Ratio CC50/EC50
Listed below: selectivity ratio values for each entry.

# compound_smiles, sign, selectivity ratio
measured = [
    ("Cc1cc(/C=C/C#N)cc(F)c1Nc1ccc(F)c(Nc2ccc(C#N)cc2)n1", ">", 100000),
    ("Cc1cc(C#N)cc(C)c1Nc1ncc(F)c(Nc2ccc(C#N)cc2)n1", "=", 36000),
    ("Cc1cc(/C=C/C#N)cc(C)c1Nc1ncc(F)c(Nc2ccc(C#N)cc2)n1", ">", 42000),
    ("Cc1cc(/C=C/C#N)cc(C)c1Nc1ccc(F)c(Nc2ccc(C#N)cc2)n1", "=", 62500),
]

###

molecules and their reported EC50
Biological target: Human immunodeficiency virus type 1 reverse transcriptase (Human immunodeficiency virus 1, UniProt Q72547)
Assay: Inhibition of wild-type HIV1 3B reverse transcriptase

# compound_smiles, scale_unit, EC50
records = [
    ("N#Cc1ccc(Nc2nccc(/C(=N\\N)c3ccc4ccccc4c3)n2)cc1", "nM", 8.4),
    ("N#Cc1ccc(Nc2nccc(/C(=N\\N)c3ccccc3Br)n2)cc1", "nM", 1.7),
]

###

Molecular target: Human immunodeficiency virus type 1 reverse transcriptase (Human immunodeficiency virus 1, UniProt Q72547, Y188L)
Test: Inhibition of recombinant HIV1 reverse transcriptase Y188L mutant
pIC50: −log10 of the molar value.
Here, each record is paired with measured pIC50 data.

# compound_smiles, sign, pIC50
rows = [
    ("Cc1cc(C)c(Nc2ccnc(Nc3ccc(Cl)cc3)n2)c(C)c1", "=", 5.60),
    ("Cc1cc(C)c(Nc2ccnc(Nc3ccc(C#N)cc3)n2)c(C)c1", "=", 7.40),
    ("Cc1cc(C)c(Nc2ccnc(Nc3ccc(C(N)=O)cc3)n2)c(C)c1", "<", 5.00),
]
